Measured On: T1, His-tagged ILT4 protein extracellular domain: ILT4-His (human, UniProt Q8N423 22-460)
T1 construct: Expressed in 293 cells; also called human ILT4-His protein
Assay Overview: ELISA, coated ILT4-His 1 µg/mL; Assay 2
Measure: EC50 (µg/mL)
Form entry: value (µg/mL) — number only.

As a guide, the following entries are already answered.
Form field EC50, entry chimeric antibody ChP2-E7 (antibody, human IgG4 S228P, kappa, F234A L235A, V domains shown, Murine variable regions with hIgG4(LALA) and CL constant regions; also called M P2-E7) VH: QVQLQQPGTELVKPGASVKLSCKASGYTFTSYWMHWVKQSPGQGLEWIGNINPSNGGPNYNENFKTKATLTVDKSSSTAYMQLNSLTSEDSAVYYCAGGDYYGGSYLFAYWGQGTLVTVSS VL: DTVMTQSHKFMSTSVGDRVSVTCKASQDVNIAVAWYQQKPGQSPKLLIYSSSYRYTGVPDRFTGSGSETDFTFTISSVQAEDLAVYYCQQHYTFPYTFGGGTKLEIKR : 0.0729

Form field EC50, entry chimeric antibody ChP2-E11 (antibody, human IgG4 S228P, kappa, F234A L235A, V domains shown, Murine variable regions with hIgG4(LALA) and CL constant regions; also called M P2-E11) VH: QVQLQQSGPELVKPGASVKISCKASAYTFTDYYINWVKQRPGQGLEWIGWIFPGSGSTYYNEKFKGKATLTVDKSSSTAYMLVSSLTSEDSAVYFCARSGTLVAPYAMDYWGQGTSVTVSS VL: SIVMTQTPKFLLVSAGDRVTITCKASQSVSNDVAWYQQKPGQSPKLLIYYTSNRYTGVPDRFTGSGYGTDFTFTISTVQAEDLAVYFCQQDYSFPLTFGAGTKLEIKR : 0.0428

Form field EC50, entry chimeric antibody ChP2-G4 (antibody, human IgG4 S228P, kappa, F234A L235A, V domains shown, Murine variable regions with hIgG4(LALA) and CL constant regions; also called M P2-G4) VH: EVQLQQSGPELVKPGASVKMSCKASGYTFTDYNMHWVKQSHGKSLEWIGYINPNNGGTTYNQKFKGKATLTVNKSSSTAYMELRSLTSEDSAVYYCASSEYYGSTFLFAYWGQGTLVTVSS VL: DIVMTQSHKFMSTSVGDRVGITCKASQDVSIAVAWYQQKPGQSPKLLIYSASYRYTGVPDRFTGSGSGTDFTFTISSVQAEDLAAYYCQQHYSTPWTFGGGTKLEIKR : 0.0621

Continuing:
Form field EC50, entry positive control antibody JTX (sequences from WO2019126514A2) (antibody, human IgG4 S228P, kappa, V domains shown, also called JTX-8064) VH: QITLKESGPTLVKPTQTLTLTCTFSGFSLNTYAMGVSWIRQPPGKALEWLASIWWNGNKYNNPSLKSRLTVTKDTSKNQVVLTMTNMDPVDTATYYCAHSRIIRFTDYVMDAWGQGTLVTVSS VL: DIQMTQSPSSLSTSVGDRVTITCRASEDIYNDLAWYQQKPGKAPKLLIYNANSLHTGVASRFSGSGSGTDFTFTISSLQPEDVATYFCQQYYDYPLTFGQGTKLEIKR : 0.0826
